- targetOrTestSystem: human ether-à-go-go-related gene (hERG) potassium channel (human, UniProt Q12809)
- Sequence (Q12809 whole entry, looked up): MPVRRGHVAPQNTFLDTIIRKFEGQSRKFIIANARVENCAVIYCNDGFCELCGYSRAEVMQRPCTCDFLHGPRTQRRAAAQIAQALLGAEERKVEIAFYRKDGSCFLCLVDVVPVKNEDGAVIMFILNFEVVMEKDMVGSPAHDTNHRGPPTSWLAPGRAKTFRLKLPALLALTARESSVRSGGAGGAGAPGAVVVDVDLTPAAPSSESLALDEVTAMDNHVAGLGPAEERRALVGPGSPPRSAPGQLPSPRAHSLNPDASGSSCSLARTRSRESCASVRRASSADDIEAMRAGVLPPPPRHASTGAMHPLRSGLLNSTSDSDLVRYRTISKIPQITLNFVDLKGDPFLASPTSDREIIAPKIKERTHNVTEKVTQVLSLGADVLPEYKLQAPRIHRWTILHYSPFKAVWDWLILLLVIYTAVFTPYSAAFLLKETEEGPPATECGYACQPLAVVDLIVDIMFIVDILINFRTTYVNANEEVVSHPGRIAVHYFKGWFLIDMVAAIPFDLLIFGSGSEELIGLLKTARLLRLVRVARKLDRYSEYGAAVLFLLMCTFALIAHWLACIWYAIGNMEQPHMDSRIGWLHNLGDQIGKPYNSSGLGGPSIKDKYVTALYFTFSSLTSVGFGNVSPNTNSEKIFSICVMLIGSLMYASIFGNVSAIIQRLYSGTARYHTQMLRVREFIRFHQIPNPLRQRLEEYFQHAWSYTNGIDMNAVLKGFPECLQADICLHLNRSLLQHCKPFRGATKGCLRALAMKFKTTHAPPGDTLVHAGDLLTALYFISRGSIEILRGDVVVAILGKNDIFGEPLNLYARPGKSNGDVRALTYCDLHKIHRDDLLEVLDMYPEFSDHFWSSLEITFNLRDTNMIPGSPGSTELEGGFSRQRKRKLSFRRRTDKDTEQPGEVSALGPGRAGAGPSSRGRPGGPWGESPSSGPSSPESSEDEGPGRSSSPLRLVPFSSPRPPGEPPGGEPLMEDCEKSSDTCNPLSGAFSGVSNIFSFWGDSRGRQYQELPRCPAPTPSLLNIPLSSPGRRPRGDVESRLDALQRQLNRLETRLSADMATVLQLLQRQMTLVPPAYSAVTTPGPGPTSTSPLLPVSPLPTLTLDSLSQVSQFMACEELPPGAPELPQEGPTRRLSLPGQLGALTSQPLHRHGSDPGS
- assayOverview: primary screen, population patch clamp on CHO cells stably expressing hERG; higher = less effect of the substance
Among all 310,000 compounds or so, about 14,000 (4.5%) showed an effect of 50% or more. Effects have a minus sign here. The entries come from a sample that favours strong results as a whole.
// values below are reported hERG current change (%, negative = inhibition) at 10uM
# unit: % | format: bare number

molecule	measuredResult
Cc1cc(S(=O)(=O)N2CCc3ccccc3C2)ccc1F	7.2
Cc1sc2nc(CSc3ccccc3)nc(N3CCOCC3)c2c1C	2.04
Cc1ccc(CN2Cc3cccc4c3[C@@H](CC2=O)[C@H](O)[C@H](O)C4)cc1	19.6
CN(C)C=O.O=C(COC(=O)c1ccc(S(=O)(=O)N2CCCC2)cc1)Nc1cccnc1Cl	7.25
CCOC(=O)C(C)Sc1nnc(CSc2nc3nc(C)cc(C)n3n2)o1 (stereo not shown)	9.3
CNC(=S)N(Cc1ccc(OC)cc1)Cc1cc2cc(C)ccc2[nH]c1=O	18

Reported hERG current change (%, negative = inhibition) at 10uM (human ether-à-go-go-related gene (hERG) potassium channel (human, UniProt Q12809)) for entry O=C(NCCc1ccccc1)c1cccnc1 is 7.59

Reported hERG current change (%, negative = inhibition) at 10uM (human ether-à-go-go-related gene (hERG) potassium channel (human, UniProt Q12809)) for entry Cc1sc2nc(CSc3ccccc3)nc(N3CCC(C(N)=O)CC3)c2c1C is -8.46

Reported hERG current change (%, negative = inhibition) at 10uM (human ether-à-go-go-related gene (hERG) potassium channel (human, UniProt Q12809)) for entry COC(=O)C1=C(C)N(CCc2ccc(OC)c(OC)c2)C(=O)C1 is 18.5

Reported hERG current change (%, negative = inhibition) at 10uM (human ether-à-go-go-related gene (hERG) potassium channel (human, UniProt Q12809)) for entry COc1ccc(NS(=O)(=O)c2cc(NC(=O)c3ccc(=O)[nH]c3)ccc2C)cc1 is 15.1

Reported hERG current change (%, negative = inhibition) at 10uM (human ether-à-go-go-related gene (hERG) potassium channel (human, UniProt Q12809)) for entry NS(=O)(=O)c1ccc(CCNC(=O)CCCCCn2c(=S)[nH]c3ccc(Br)cc3c2=O)cc1 is 9.32

###

// values below are reported hERG current change (%, negative = inhibition) at 10uM
- targetOrTestSystem: human ether-à-go-go-related gene (hERG) potassium channel (human, UniProt Q12809);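 further: peak tail current of the secondary pulse compared with the same well before compound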
- assayOverview: primary screen, population patch clamp on CHO cells stably expressing hERG; higher = less effect of the substance
- Experimental: Briefly, Chinese hamster ovary (CHO) cells stably expressing the hERG channel were dislodged from tissue culture flasks and dispensed into PPC plates. […] During the recording, background leak currents were estimated by a 100 ms step to -80 mV from an initial holding potential of -70 mV and subtracted from the subsequent current measurement. The campaign was conducted in two phases using slight differences in recording protocol. […]
Screen size: about 310,000 compounds; about 14,000 (4.5%) showed an effect of 50% or more. The effect is printed as a negative number. Many of the other results were omitted from the sample, so strong results are more common in it than they were.
# unit: % | format: bare number

molecule	measuredResult
COc1ccccc1N1CCN(C2CCCN(Cc3cc(F)cc(F)c3)C2)CC1 (centres unmarked)	-6.62
Cc1ccc(-n2nc3c(=O)n(CC(=O)NCc4cccs4)nc(C)c3c2C)cc1	-20.1
CCOc1ccccc1NC(=O)CSc1ccc2nnc(-c3cccnc3)n2n1	-61.9
O=C(CSc1nnc2ccc(-c3ccccn3)nn12)NCCc1ccccc1	-6.49

Please find the next molecule below.
hERG current change (%, negative = inhibition) at 10uM in this record for Cc1cc2nc(-c3cccc(NC(=O)c4ccc(Br)o4)c3C)oc2cc1C : 5.67

###

// values below are reported hERG current change (%, negative = inhibition) at 10uM
- targetOrTestSystem: human ether-à-go-go-related gene (hERG) potassium channel (human);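 further: peak tail current of the secondary pulse compared with the same well before compound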
- assayOverview: primary screen, population patch clamp on CHO cells stably expressing hERG; higher = less effect of the substance
The whole screen tested about 310,000 compounds, of which about 14,000 (4.5%) showed an effect of 50% or more. Effects have a minus sign here. Shown is part of a subset that was picked to be rich in strong results.
# unit: % | format: bare number

hERG current change (%, negative = inhibition) at 10uM in this record for CC1(OC(=O)CCc2ccccc2)C(=O)C=C2C=C(c3ccc(C#N)cc3)N(CC3CC3)C=C2C1=O (stereo not drawn) : -44.6

hERG current change (%, negative = inhibition) at 10uM in this record for CCN(CC(=O)Nc1ccc(OC)cc1)C(=O)COc1cccc2c1OC(C)(C)C2 : -14.1

hERG current change (%, negative = inhibition) at 10uM in this record for CC1(OC(=O)CCc2ccccc2)C(=O)C=C2C=C(c3ccc(C#N)cc3)N(c3ccccc3)C=C2C1=O (stereo not drawn) : 14.3

hERG current change (%, negative = inhibition) at 10uM in this record for Cc1ccc(C(=O)N(C)Cc2ccc(N3CCOCC3)cc2)cc1S(=O)(=O)NCc1ccccc1 : -55.6

hERG current change (%, negative = inhibition) at 10uM in this record for COc1cccc(Nc2ncc(C(=O)O)c3ccccc23)c1 : -1.48

hERG current change (%, negative = inhibition) at 10uM in this record for Cc1ccc(C(=O)N(C)Cc2ccccc2)cc1S(=O)(=O)N1CCOCC1 : -12.8

hERG current change (%, negative = inhibition) at 10uM in this record for CC1(OC(=O)CCc2ccccc2)C(=O)C=C2C=C(c3ccc(C#N)cc3)N(CCc3ccccn3)C=C2C1=O (stereo not drawn) : -51.8

hERG current change (%, negative = inhibition) at 10uM in this record for CC(C)CN1C=C2C(=O)C(C)(OC(=O)CCc3ccccc3)C(=O)C=C2C=C1c1ccc(C#N)cc1 (stereo not drawn) : -26.9

hERG current change (%, negative = inhibition) at 10uM in this record for COC(=O)c1ccc(Oc2c(C)oc3cc(OCc4cnn(-c5ccccc5)c4)ccc3c2=O)cc1 : 1.08

hERG current change (%, negative = inhibition) at 10uM in this record for CCOC(=O)N1CCN(c2nc(-c3ccco3)cc(C(F)(F)F)n2)CC1 : -3.17

hERG current change (%, negative = inhibition) at 10uM in this record for COc1cc(/C=N/NC(=O)c2ccc(Cl)cc2)ccc1OCC(=O)N1CC(C)OC(C)C1 (stereo not drawn) : -18.3

hERG current change (%, negative = inhibition) at 10uM in this record for COC(=O)CCc1nc2cc(Cl)ccc2n(Cc2ccccc2)c1=O : -23.1

###

- targetOrTestSystem: human ether-à-go-go-related gene (hERG) potassium channel (human, UniProt Q12809);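 further: peak tail current of the secondary pulse compared with the same well before compound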
- assayOverview: primary screen, population patch clamp on CHO cells stably expressing hERG; higher = less effect of the substance
Among all 310,000 compounds or so, about 14,000 (4.5%) showed an effect of 50% or more. Effects have a minus sign here. The list comes from a sample in which strong results are over-represented; it also holds close analogues and randomly drawn compounds.
Respond with yes for hERG current change (%, negative = inhibition) at 10uM values of -30% and above, no for values below.

# count of solved cases: 3
moleculeSmiles	assignedClass
CC(=O)N1CCCc2cc(S(=O)(=O)N(CC(C)C)CC(C)C)ccc21	no
CCOC(=O)N1CCN(C(=O)CSCC(=O)Nc2nc(-c3cccs3)cs2)CC1	no
CCCCN(CC)S(=O)(=O)c1ccc2c(c1)CCCN2C(C)=O	no

Check if hERG current change (%, negative = inhibition) at 10uM >= -30% (inclusive). Item: Cc1cc(C)cc(C(=O)NCC(=O)OCC(=O)c2cc(C)n(CC(F)(F)F)c2C)c1
yes

Check if hERG current change (%, negative = inhibition) at 10uM >= -30% (inclusive). Item: O=C(Nc1nnc(-c2ccccc2F)s1)Nc1ccccc1F
yes

###

- targetOrTestSystem: human ether-à-go-go-related gene (hERG) potassium channel (human, UniProt Q12809);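 further: peak tail current of the secondary pulse compared with the same well before compound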
- assayOverview: primary screen, population patch clamp on CHO cells stably expressing hERG; higher = less effect of the substance
- Procedure: Briefly, Chinese hamster ovary (CHO) cells stably expressing the hERG channel were dislodged from tissue culture flasks and dispensed into PPC plates. […] During the recording, background leak currents were estimated by a 100 ms step to -80 mV from an initial holding potential of -70 mV and subtracted from the subsequent current measurement. The campaign was conducted in two phases using slight differences in recording protocol. […]
About 14,000 (4.5%) of roughly 310,000 compounds showed an effect of 50% or more. The effect is printed as a negative number. The list comes from a sample in which strong results are over-represented; it also holds close analogues and randomly drawn compounds.
// values below are reported hERG current change (%, negative = inhibition) at 10uM
Reply with the number, then its unit.

Consider the following illustrative entries.
molecule	measuredResult
CCOC(=O)C1(CCOc2ccccc2)CCN(C2Cc3ccccc3C2)CC1	-53.4%
CC1(C)CC(N2CCC(=O)NC2=S)CC(C)(C)N1	3.04%
COCCn1c(SCC(=O)N2CCC(C)CC2)nc2c([nH]c3ccccc32)c1=O	-19.8%
CCOC(=O)N1CCN(C(=O)CSc2nc3c([nH]c4ccccc43)c(=O)n2CC)CC1	-13.8%

hERG current change (%, negative = inhibition) at 10uM in this record for CCOC(=O)C1(CCc2ccccc2)CCN(C2CCSCC2)CC1 : -76.3%

hERG current change (%, negative = inhibition) at 10uM in this record for Cn1c(=O)c2c(ncn2CC(O)CNc2ccc(F)cc2)n(C)c1=O (stereo not shown) : 1.35%

hERG current change (%, negative = inhibition) at 10uM in this record for COCCn1c(SCC(=O)N2CCCC2)nc2c([nH]c3ccccc32)c1=O : -61.3%

hERG current change (%, negative = inhibition) at 10uM in this record for CCOc1ccc(S(=O)(=O)N(CC)CC(=O)NCc2cccnc2)cc1 : -38%

hERG current change (%, negative = inhibition) at 10uM in this record for COc1cccc(CN2CCN(Cc3ccc(O)c(OC)c3)CC2CCO)c1 (stereo not shown) : -5.76%

hERG current change (%, negative = inhibition) at 10uM in this record for CSCC[C@H](NC(=O)N1CCn2c1nc1ccccc12)C(=O)NCc1ccco1 : -19.1%

hERG current change (%, negative = inhibition) at 10uM in this record for COc1cc(OC)nc(NC2OC(=O)c3ccccc32)n1 (stereo not shown) : 0.248%

hERG current change (%, negative = inhibition) at 10uM in this record for CC(=O)N1CCN(c2ccccc2NC(=O)c2cccc3c(Cl)cccc23)CC1 : -19.2%

hERG current change (%, negative = inhibition) at 10uM in this record for CN1CCN(c2ccccc2NC(=O)c2cc(Br)ccc2Cl)CC1 : -76.4%
